B1: DFFB (parent)
chain: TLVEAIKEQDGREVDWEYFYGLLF

Variants of: B1
EXPERIMENT SUMMARY: protein stability index of a GFP-peptide fusion (GPS, HEK-293T) (PSI 1-6); higher = more stable;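 also: lentivirally expressed fusions sorted by FACS into six bins by GFP to DsRed ratio, PSI derived from sequencing read proportions per bin multiplied by bin number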
PARTICULARS: c terminus: a fixed tail appended
PARAMETER MEASURED: protein stability index

- INPUT SEQUENCE: "TLVEAIKEQDGVEVDWEYFYGLLF [R12V]"
  REPORTED: 2.07
- INPUT SEQUENCE: "TLVEAIKEQDGREVDWRYFYGLLF [E17R]"
  REPORTED: 2.46
- INPUT SEQUENCE: "TCVEAIKEQDGREVDWEYFYGLLF [L2C]"
  REPORTED: 2.16
- INPUT SEQUENCE: "TLVEAIKEQDEREVDWEYFYGLLF [G11E]"
  REPORTED: 2.13
- INPUT SEQUENCE: "TLVEAIFEQDGREVDWEYFYGLLF [K7F]"
  REPORTED: 2.99
- INPUT SEQUENCE: "TLVEAIKLQDGREVDWEYFYGLLF [E8L]"
  REPORTED: 2.82
- INPUT SEQUENCE: "TLVEAIKDQDGREVDWEYFYGLLF [E8D]"
  REPORTED: 2.08
- INPUT SEQUENCE: "TLVEAIKEQDGREVDWEYFYRLLF [G21R]"
  REPORTED: 1.84
- INPUT SEQUENCE: "TLVEAIKEQDGREVDWEYWYGLLF [F19W]"
  REPORTED: 2.39
- INPUT SEQUENCE: "TLVEAIKEQDVREVDWEYFYGLLF [G11V]"
  REPORTED: 2.92
- INPUT SEQUENCE: "TLVEAIKEQDQREVDWEYFYGLLF [G11Q]"
  REPORTED: 2.04
- INPUT SEQUENCE: "TLVEQIKEQDGREVDWEYFYGLLF [A5Q]"
  REPORTED: 2.4
- INPUT SEQUENCE: "TLVEAIKEQDGREVDWEYFAGLLF [Y20A]"
  REPORTED: 2.03
- INPUT SEQUENCE: "TLVEAIKEQDGRELDWEYFYGLLF [V14L]"
  REPORTED: 2.28
- INPUT SEQUENCE: "TYVEAIKEQDGREVDWEYFYGLLF [L2Y]"
  REPORTED: 1.71
- INPUT SEQUENCE: "TLVEAIKEQDGREKDWEYFYGLLF [V14K]"
  REPORTED: 1.23
- INPUT SEQUENCE: "TLVEAIKEQDGREVDPEYFYGLLF [W16P]"
  REPORTED: 2.44
- INPUT SEQUENCE: "TLVEAIKEQDGAEVDWEYFYGLLF [R12A]"
  REPORTED: 1.32
- INPUT SEQUENCE: "TLVEAIKEQDGREVDWEYFYGLWF [L23W]"
  REPORTED: 2.21
- INPUT SEQUENCE: "TLVEAIKEQDGREVDSEYFYGLLF [W16S]"
  REPORTED: 2.84
- INPUT SEQUENCE: "TLVEIIKEQDGREVDWEYFYGLLF [A5I]"
  REPORTED: 1.36
- INPUT SEQUENCE: "TLVEHIKEQDGREVDWEYFYGLLF [A5H]"
  REPORTED: 1.98
- INPUT SEQUENCE: "TLQEAIKEQDGREVDWEYFYGLLF [V3Q]"
  REPORTED: 1.88
- INPUT SEQUENCE: "TLVEAIKEQDGREVDWEYFYWLLF [G21W]"
  REPORTED: 1.83
- INPUT SEQUENCE: "TLVEAIKEQDGREVDWEYFYGTLF [L22T]"
  REPORTED: 2.58
- INPUT SEQUENCE: "TLVEAIKEQDGRENDWEYFYGLLF [V14N]"
  REPORTED: 2.36
- INPUT SEQUENCE: "TLVEAIKEYDGREVDWEYFYGLLF [Q9Y]"
  REPORTED: 1.08
- INPUT SEQUENCE: "TLVEAIKSQDGREVDWEYFYGLLF [E8S]"
  REPORTED: 1.72
- INPUT SEQUENCE: "TLVEPIKEQDGREVDWEYFYGLLF [A5P]"
  REPORTED: 2.74
- INPUT SEQUENCE: "TLVEAIKEQDGREVDWEYFWGLLF [Y20W]"
  REPORTED: 1.72
- INPUT SEQUENCE: "TLVFAIKEQDGREVDWEYFYGLLF [E4F]"
  REPORTED: 2.38
- INPUT SEQUENCE: "TLVEAIKEQDGREVAWEYFYGLLF [D15A]"
  REPORTED: 1.44
